procedureSummary: Liver microsome metabolic stability, human
Type: in vitro ADME, humans
conditionSummary: human (h) liver microsomes 0.5 mg/ml, 45 min; read-out: LMS (h,r,m) (% rem, 45 min)
endpointLabel: remaining at 0.75 h, 1 µM (%)

In [3]: df
Out[3]:
                          structurenotation  testvalue
0  CC(=O)N1CCOC[C@H]1CNc1nc2nc(-c3c(C)cc(C(F)(F)F)cc3O)ccc2o1       93.2

----------
studySystem: IL-1β secretion of THP-1 cells (Homo sapiens)
Sequence (Q96P20 whole entry): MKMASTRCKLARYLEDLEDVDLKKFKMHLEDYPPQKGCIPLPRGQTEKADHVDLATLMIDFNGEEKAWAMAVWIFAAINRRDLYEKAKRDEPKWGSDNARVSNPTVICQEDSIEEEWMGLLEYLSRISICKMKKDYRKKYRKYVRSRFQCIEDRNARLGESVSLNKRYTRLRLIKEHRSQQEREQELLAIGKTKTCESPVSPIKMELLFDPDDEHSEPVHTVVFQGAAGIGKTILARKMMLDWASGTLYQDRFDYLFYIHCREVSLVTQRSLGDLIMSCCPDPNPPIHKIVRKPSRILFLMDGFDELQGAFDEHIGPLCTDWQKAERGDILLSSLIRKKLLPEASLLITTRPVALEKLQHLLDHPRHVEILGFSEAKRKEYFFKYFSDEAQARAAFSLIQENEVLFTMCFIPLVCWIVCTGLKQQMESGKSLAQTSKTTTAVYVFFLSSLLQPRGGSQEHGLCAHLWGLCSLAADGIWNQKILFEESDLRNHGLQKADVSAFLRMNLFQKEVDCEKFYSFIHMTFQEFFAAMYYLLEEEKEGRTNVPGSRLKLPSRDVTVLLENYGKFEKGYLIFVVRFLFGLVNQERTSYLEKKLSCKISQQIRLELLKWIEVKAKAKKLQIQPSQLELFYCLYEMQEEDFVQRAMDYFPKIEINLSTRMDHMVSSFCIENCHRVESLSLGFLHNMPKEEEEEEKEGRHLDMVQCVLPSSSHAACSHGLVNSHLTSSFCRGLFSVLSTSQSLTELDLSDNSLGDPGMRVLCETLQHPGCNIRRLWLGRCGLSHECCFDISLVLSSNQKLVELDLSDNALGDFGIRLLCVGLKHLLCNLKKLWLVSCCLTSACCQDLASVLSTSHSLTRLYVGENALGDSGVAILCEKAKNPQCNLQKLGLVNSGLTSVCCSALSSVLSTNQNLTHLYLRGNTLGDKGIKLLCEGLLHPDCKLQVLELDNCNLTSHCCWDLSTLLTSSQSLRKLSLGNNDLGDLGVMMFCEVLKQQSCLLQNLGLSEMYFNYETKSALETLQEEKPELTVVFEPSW
procedureSummary: Effect of NLRP3 inhibitor on IL-1β secretion of THP-1 cells (AlphaLISA)
conditionSummary: PMA 50nM, LPS 100ng/ml, Nigericin 10µM, IL-1β in supernatant
// reported IC50 per item
endpointLabel: IC50

                          structurenotation                               studysystem     testvalue
0  Cc1cc(C(F)(F)F)cc(O)c1-c1cc(C)n2nc(N3CCOCC3)nc2n1  IL-1β secretion of THP-1 cells (Homo sapiens)  50 to 100 nM
1  CC(=O)NC[C@@H]1COCCN1c1nc2nc(-c3c(C)cc(C(F)(F)F)cc3O)cc(C)n2n1  IL-1β secretion of THP-1 cells (Homo sapiens)       < 50 nM
2  Cc1cc(Cl)cc(O)c1-c1ccc2oc(N3CCS(=O)(=O)CC3)nc2n1  IL-1β secretion of THP-1 cells (Homo sapiens)  50 to 100 nM
3  CCN1CCC[C@@H](Nc2nc3c(C)cc(-c4c(C)cc(C(F)(F)F)cc4O)nn3n2)C1  IL-1β secretion of THP-1 cells (Homo sapiens)       < 50 nM
4  Cc1cc(C(F)(F)F)cc(O)c1-c1ccc2oc(NC[C@@H](C)O)nc2n1  IL-1β secretion of THP-1 cells (Homo sapiens)  50 to 100 nM
5  CCN1CCC[C@@H](N2CC(=O)Nc3cc(-c4c(C)cc(C(F)(F)F)cc4O)nnc32)C1  IL-1β secretion of THP-1 cells (Homo sapiens)       < 50 nM
6  Oc1cc(Cl)cc(O)c1-c1ccc2oc(N3CCOCC3)nc2n1  IL-1β secretion of THP-1 cells (Homo sapiens)       < 50 nM
7  Cc1cc(C(F)(F)F)cc(O)c1-c1ccn2nc(N[C@@H]3CCCN(C)C3)nc2n1  IL-1β secretion of THP-1 cells (Homo sapiens)       < 50 nM

----------
procedureSummary: Liver microsome metabolic stability, rat
Assay type: in vitro ADME, rats
conditionSummary: rat (r) liver microsomes 0.5 mg/ml, 45 min; read-out: LMS (h,r,m) (% rem, 45 min)
endpointLabel: remaining at 0.75 h, 1 µM

>>> print(df.to_string())
                          structurenotation  testvalue
0  CC(=O)N1CCOC[C@H]1CNc1nc2nc(-c3c(C)cc(C(F)(F)F)cc3O)ccc2o1      82.5%

----------
procedureSummary: Liver microsome metabolic stability, mouse
Type: in vitro ADME, mice
conditionSummary: mouse (m) liver microsomes 0.5 mg/ml, 45 min; read-out: LMS (h,r,m) (% rem, 45 min)
endpointLabel: remaining at 0.75 h, 1 µM

                          structurenotation  testvalue
0  CC(=O)N1CCOC[C@H]1CNc1nc2nc(-c3c(C)cc(C(F)(F)F)cc3O)ccc2o1      91.3%
